- Test system: Aspergillus niger
- assayComment: Antifungal activity against Aspergillus niger MTCC 1344 by liquid dilution technique
- Format: functional
Calls of active or inactive are those of the source. No cut-off for these calls is given here.
measure: MIC

structure: Cc1ccc(-c2nnc(-n3c(C)nc4ccccc4c3=O)o2)cc1
result: 165 µg/mL

structure: CN(C)c1ccc(-c2nnc(-n3c(/C=C/c4ccc(Cl)cc4)nc4ccccc4c3=O)o2)cc1
result: inactive

structure: O=c1c2ccccc2nc(/C=C/c2ccccc2)n1-c1nnc(-c2ccccc2)o1
result: 143 µg/mL

structure: O=c1c2ccccc2nc(/C=C/c2ccc(Cl)cc2)n1-c1nnc(-c2ccccc2)o1
result: inactive

structure: CN(C)c1ccc(-c2nnc(-n3c(/C=C/c4ccccc4)nc4ccccc4c3=O)o2)cc1
result: 155 µg/mL
